Data credit: PubChem BioAssay (NCI)

System: RPMI-8226 leukemia
TEST: NCI-60 one-dose screen, 48 h (100 = growth as untreated, 0 = no growth, -100 = all killed)
TEST CONTEXT: 10 µM unless noted
Compounds without any hit were thinned out: in the full panel of roughly 83,000, 20% have a hit.
So basically: is growth under 50%? Then Yes. Not under? Then No.

N#CC1CCc2c(c(-c3cn[nH]c3C(F)(F)F)nc3c(F)cc4[nH]ncc4c23)C1 (centres undefined)    Yes
CC1=C(C(=O)OC(C)C)C(c2ccc3c(c2)OCO3)NC(=S)N1 (centres undefined)    No
CC(=O)c1cc(O)c2ccccc2c1O    Yes
C=C1C(=O)O[C@H]2[C@H]1CC/C(COC(=O)CCSCCC(=O)OC/C1=C/CC[C@@]3(C)O[C@H]3[C@H]3OC(=O)C(=C)[C@@H]3CC1)=C\CC[C@@]1(C)O[C@@H]21    Yes
CSc1nc2sc3c(c2c(=O)n1-c1ccc([N+](=O)[O-])cc1)CCCCC3    No
O=S(=O)(NCCNc1nccc(-c2c(-c3cccc(F)c3)nc3occn23)n1)c1ccc(Br)cc1    No
CCCCCCC1(C)NCCO1 (centres undefined)    No
COc1ccc(-c2ccc3cnc4sc(-c5ccc(OC)cc5)nc4c3n2)cc1    No
CCN(CC)c1ccc(/C=C/C(=O)c2ccc(Nc3nc(Nc4ccccc4)nc(Nc4ccccc4)n3)cc2)cc1    Yes
